Biological target: KRAS G12D (Homo sapiens, UniProt P01116, G12D)
Sequence (P01116 1-188 isoform P01116-2 G12D): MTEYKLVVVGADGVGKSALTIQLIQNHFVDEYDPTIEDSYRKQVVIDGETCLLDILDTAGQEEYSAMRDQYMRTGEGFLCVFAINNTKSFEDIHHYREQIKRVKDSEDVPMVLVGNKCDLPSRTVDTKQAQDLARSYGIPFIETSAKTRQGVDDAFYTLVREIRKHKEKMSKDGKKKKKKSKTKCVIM
Assay: biochemical
pIC50: −log10 of the molar value.
assay_metric: pIC50

compound: C#Cc1c(F)ccc2cc(O)cc(-c3ncc4c(N5CCCC(C#N)C5)nc(OCC5(CN6CCC(F)CC6)CC5)nc4c3F)c12 (single isomer, unassigned)
pIC50: 4.72

a. C#Cc1c(F)ccc2cc(O)cc(-c3ncc4c(N5CCOCC(CC#N)C5)nc(OC[C@]56CCC[C@H]5N(C)CCC6)nc4c3F)c12 (single isomer, unassigned)
b. C#Cc1c(F)ccc2cc(O)cc(-c3nc(OC)c4c(N5CCOC6CC65)nc(OC[C@@]56CCCN5C[C@H](F)C6)nc4c3F)c12 (stereo partly drawn)
Task: Compare pIC50: is it lower for a or for b ? # respond with the chosen item's label
Output: b

----------
Target: KRAS Q61H (Homo sapiens, UniProt P01116, Q61H)
Sequence (P01116 1-188 isoform P01116-2 Q61H): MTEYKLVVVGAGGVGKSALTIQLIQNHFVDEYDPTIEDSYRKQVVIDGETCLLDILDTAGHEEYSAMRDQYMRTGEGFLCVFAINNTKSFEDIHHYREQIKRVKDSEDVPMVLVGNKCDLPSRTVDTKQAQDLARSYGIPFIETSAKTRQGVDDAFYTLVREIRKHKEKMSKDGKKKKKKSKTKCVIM
Experiment: Cellular KRAS:RAF Disruption Assay (NanoBRET), KRAS Q61H
Conditions: HEK293 T cells co-expressing RAF1 and KRAS Q61H, 24 hours; read-out: RAS::RAF binding via NanoBRET IC50, KRAS Q61H
assay_metric: IC50 (nM)

Example results:
compound: C#Cc1c(F)ccc2cc(O)cc(-c3ccc4c(N5CC6CCC(C5)N6C(=O)C(F)(F)F)nc(OC[C@@]56CCCN5C[C@H](F)C6)nc4c3F)c12 [Example 7-3]
IC50 (nM): 474
//
compound: C#Cc1c(F)ccc2cc(O)cc(-c3ncc4c(N5CCCOCC5)nc(OC[C@]56CCC[C@H]5N(C)CCC6)nc4c3F)c12 [Example 1-3]
IC50 (nM): 7
//
compound: C#Cc1c(F)ccc2cc(O)cc(-c3ccc4c(N5CCCOCC5)nc(OC[C@@]56CCCN5C[C@H](F)C6)nc4c3F)c12 [Example 2-2]
IC50 (nM): 16
//
compound: C#Cc1c(F)ccc2cc(O)cc(-c3ccc4c(N5CC6CCC(C5)N6C(=O)C(F)(F)F)nc(OC[C@]56CCC[C@H]5N(C)CCC6)nc4c3F)c12 [Example 7-7]
IC50 (nM): 504
//
compound: C#Cc1c(F)ccc2cc(O)cc(-c3ccc4c(N5CCCOCC5)nc(OC[C@]56CCC[C@H]5N(C)CCC6)nc4c3F)c12 [Example 2-3]
IC50 (nM): 72

A. C#Cc1c(F)ccc2cc(O)cc(-c3ncc4c(N5CCOCC5)nc(OC[C@@]56CCCN5C[C@H](F)C6)nc4c3F)c12 [Example 1-1]
B. C#Cc1c(F)ccc2cc(O)cc(-c3ncc4c(N5CC6CCC(C5)N6C(=O)C5CC5)nc(OC[C@@]56CCCN5C[C@H](F)C6)nc4c3F)c12 [Example 6-2]
C. C#Cc1c(F)ccc2cc(O)cc(-c3ncc4c(N5C6COCC5C6)nc(OC[C@@]56CCCN5C[C@H](F)C6)nc4c3F)c12 [Example 1-35]
Task: Descending sort on IC50 required. Give the labels in the order specified.
Output: B, A, C
(B: 234 nM, A: 99 nM, C: 31 nM)

----------
Target: KRAS G12C (Homo sapiens, UniProt P01116, G12C)
Sequence (P01116 1-188 isoform P01116-2 G12C): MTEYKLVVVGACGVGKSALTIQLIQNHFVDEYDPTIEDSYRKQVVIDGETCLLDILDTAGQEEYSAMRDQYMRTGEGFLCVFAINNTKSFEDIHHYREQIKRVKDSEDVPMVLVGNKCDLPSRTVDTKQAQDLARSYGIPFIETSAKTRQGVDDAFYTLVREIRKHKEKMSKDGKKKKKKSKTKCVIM
Test: Cellular KRAS:RAF Disruption Assay (NanoBRET), KRAS G12C
Conditions: HEK293 T cells co-expressing RAF1 and KRAS G12C, 24 hours; read-out: RAS::RAF binding via NanoBRET IC50, KRAS G12C
pIC50: −log10 of the molar value.
assay_metric: pIC50

molecule: C#Cc1c(F)ccc2cc(O)cc(-c3ccc4c(N5CC6CCC(C5)N6C(=O)C(F)(F)F)nc(OC[C@]56CCC[C@H]5N(C)CCC6)nc4c3F)c12 [Example 7-7]
assay_metric: pIC50
obs_value: 6.46

a. C#Cc1c(F)ccc2cc(O)cc(-c3ncc4c(N5CCOC6CC65)nc(OC[C@]56CCC[C@H]5N(C)CCC6)nc4c3F)c12 (single isomer, unassigned) [Example 1-99]
b. C#Cc1c(F)ccc2cc(O)cc(-c3ccc4c(N5CCCOCC5)nc(OC[C@@]56CCCN5C[C@H](F)C6)nc4c3F)c12 [Example 2-2]
Task: Lab note: record which item had the higher pIC50, a or b . Provide the label of your selected option as the answer.
Output: b

a. C#Cc1c(F)ccc2cc(O)cc(-c3ncc4c(N5C6COCC5C6)nc(OC[C@@]56CCCN5C[C@H](F)C6)nc4c3F)c12 [Example 1-35]
b. C#Cc1c(F)ccc2cc(O)cc(-c3ccc4c(N5CC6CCC(C5)N6C(=O)C(F)(F)F)nc(OC[C@@]56CCCN5C[C@H](F)C6)nc4c3F)c12 [Example 7-3]
Task: Pick the one with the larger pIC50: a vs b Pick one and reply with its label.
Output: a
(a: 7.92, b: 6.44)

The measurements presented in this section are drawn from patent US20240199584A1.
